Give measured pIC50 for each item. Keep answers brief.
- Tested on: Plasmodium falciparum
- assayDetails: Plasmodium falciparum sporozoite viability assay
- Format: functional, organism-based
Answers are plain numbers.

Give one value of pIC50 per listed compound.
1. CC(O)CNCc1ccc(OCc2ccc3c(c2)OCCO3)cc1.Cl (stereo not drawn)
2. CN1CCCC1CCn1ccnc1-c1nc(-c2ccccc2)no1 (stereo not drawn)
3. COCc1noc(-c2ccc(N3CCCCC3CO)nc2)n1 (stereo not drawn)

Output:
6.937
6.882
7.545

====

- Tested on: Mycobacterium tuberculosis
- assayDetails: Cornell M. t heat shock assay
- Type: functional, organism-based
measureName: pIC50

CN1CCCCC1c1ncc2c(n1)CCN(Cc1ccc(Cl)c(F)c1)C2 (stereo not drawn) ... 4.295
Cc1cc(-c2cnc(N3CCCCCC3)nc2-c2cccnc2C)on1 ... 4.097
CN(C)S(=O)(=O)N1CCCCCC1c1cc(-c2ccc(F)cc2)no1 (stereo not drawn) ... 4.075
COc1ccc(F)c(CN(CCCn2ccnc2)Cc2ccc(C)s2)c1.O=C(O)CC(O)(CC(=O)O)C(=O)O ... 4.599
Cc1ccc(O)c(CN(CCCn2ccnc2)Cc2ccc(C)s2)c1.O=C(O)CC(O)(CC(=O)O)C(=O)O ... 4.427
Cc1ccc(CN(CCCn2ccnc2)Cc2c(F)cccc2F)s1.O=C(O)CC(O)(CC(=O)O)C(=O)O ... 4.654

Give one value of pIC50 per listed molecule.
1. Cc1cccc(CN2CCCC2c2cccc(Nc3nccs3)n2)c1 (stereo not drawn)
2. CCn1ccc(-c2cc(NCCCOc3cccc(C)c3)nc(C)n2)n1

Output:
1: 5.755; 2: 4.417
